- TARGET OR SYSTEM: human NK3 receptor (Homo sapiens, UniProt P29371)
- Construct: expressed in transfected cells; membranes prepared from them
- Sequence (P29371 whole entry): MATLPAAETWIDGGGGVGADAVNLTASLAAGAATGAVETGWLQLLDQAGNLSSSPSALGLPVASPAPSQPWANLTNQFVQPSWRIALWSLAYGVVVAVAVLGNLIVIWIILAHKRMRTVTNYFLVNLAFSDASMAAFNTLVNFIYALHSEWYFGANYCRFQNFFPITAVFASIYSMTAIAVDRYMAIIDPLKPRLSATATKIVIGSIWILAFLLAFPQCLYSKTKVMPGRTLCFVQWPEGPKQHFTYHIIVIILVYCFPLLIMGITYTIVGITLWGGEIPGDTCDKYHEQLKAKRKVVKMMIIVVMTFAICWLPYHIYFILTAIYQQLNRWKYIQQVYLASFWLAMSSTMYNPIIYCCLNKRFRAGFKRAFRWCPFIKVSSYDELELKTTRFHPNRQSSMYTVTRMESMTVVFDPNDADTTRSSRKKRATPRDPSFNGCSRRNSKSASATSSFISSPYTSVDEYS
- PROTOCOL SUMMARY: NK3 receptor binding assay (SPA-based competition binding with 125I-NKB); further: competition with app 0.02 nM 125I-NKB
- COND: read-out: Affinity (Ki/nM)
MEASURED PARAMETER: Ki (nM)

> print(dat)
                                smiles.code  measured.parameter  assay.value
1  CCCn1c(CN2CCNCC2)c(C(=O)N[C@H](c2cccc(F)c2)C2CC2)c2cccc(F)c2c1=O                  Ki           13

a = CC[C@H](NC(=O)c1c(C)n(C2CCCC2)c(=O)c2ccccc12)c1ccccc1
b = Cc1c(C(=O)N[C@H](c2cccc(F)c2)C2CC2)c2cccc(F)c2c(=O)n1C[C@@H]1CCCN1C
input: Of the two listed items, a and b , which carries the larger Ki figure? Your choice should be expressed through its label.
output: a

* * *

- TARGET OR SYSTEM: human NK3 receptor (Homo sapiens)
- Construct: expressed in transfected cells; membranes prepared from them
- PROTOCOL SUMMARY: NK3 receptor binding assay (SPA-based competition binding with 125I-NKB); further: competition with app 0.02 nM 125I-NKB
- COND: read-out: Affinity (Ki/nM)
MEASURED PARAMETER: Ki (nM)

Previously resolved entries follow.
> print(dat)
                                smiles.code  assay.value
1  CCCn1c(CN2CCCC2=O)c(C(=O)N[C@H](c2cccc(F)c2)C2CC2)c2cccc(F)c2c1=O          9.8
2  CCNn1c(CN2CCCC2=O)c(C(=O)N[C@H](c2cccc(F)c2)C2CC2)c2cccc(F)c2c1=O          6.8
3  O=C(N[C@H](c1cccc(F)c1)C1CC1)c1c(CN2CCCC2=O)n(CCC(F)(F)F)c(=O)c2c(F)cccc12          9.3
4  CCNn1c(C)c(C(=O)N[C@H](c2cccc(F)c2)C2CC2)c2cccc(F)c2c1=O           12

A = Cc1c(C(=O)N[C@H](c2ccccc2)C2CC2)c2cccc(F)c2c(=O)n1NCC(C)C
B = CCOn1c(C)c(C(=O)N[C@H](c2cccc(F)c2)C2CCC2)c2cccc(F)c2c1=O
C = CCCNn1c(C)c(C(=O)N[C@H](c2cccc(F)c2)C2CC2)c2cccc(F)c2c1=O
D = CCNn1c(C)c(C(=O)N[C@H](c2cccc(F)c2)C2CCC2)c2cccc(F)c2c1=O
input: // sort entries: Ki, high to low Please, when replying, give the labels in the order that was requested.
output: B, A, C, D

* * *

- PROTOCOL SUMMARY: Free fraction in plasma (equilibrium dialysis)
- Format: in vitro ADME
- COND: human EDTA plasma, pH 7.4 buffer, 37 °C
MEASURED PARAMETER: fraction unbound at 5 h, 2 µM

Previously resolved entries follow.
> print(dat)
                                   compound             measured.parameter  assay.value
1  CCNn1c(C)c(C(=O)N[C@H](c2ccccc2)C2CC2)c2cccc(F)c2c1=O [Example 2i]  fraction unbound at 5 h, 2 µM        0.134
2  CCCNn1c(C)c(C(=O)N[C@H](c2ccc(F)cc2)C2CCC2)c2cccc(F)c2c1=O [Example 8c]  fraction unbound at 5 h, 2 µM        0.046
3  CCNn1c(C)c(C(=O)N[C@@H](CC)c2ccccc2)c2ccccc2c1=O [Example 2a]  fraction unbound at 5 h, 2 µM        0.162
4  CCNn1c(C)c(C(=O)N[C@H](c2ccc(F)cc2)C2CC2)c2cccc(F)c2c1=O [Example 2w]  fraction unbound at 5 h, 2 µM        0.132
5  CCCNn1c(C)c(C(=O)N[C@H](c2ccccc2)C2CC2)c2cccc(F)c2c1=O [Example 2k]  fraction unbound at 5 h, 2 µM        0.124
6  Cc1c(C(=O)N[C@H](c2cccc(F)c2)C2CCC2)c2cccc(F)c2c(=O)n1NCCCF [Example 10a]  fraction unbound at 5 h, 2 µM        0.089
7  CCNn1c(C)c(C(=O)N[C@@H](CC)c2ccccc2)c2cccc(F)c2c1=O [Example 2t]  fraction unbound at 5 h, 2 µM        0.146
8  CCNn1c(C)c(C(=O)N[C@@H](CC)c2ccccc2)c2cccc(Cl)c2c1=O [Example 2h]  fraction unbound at 5 h, 2 µM        0.062

P = CCNn1c(C)c(C(=O)N[C@H](c2cccc(F)c2)C2CCC2)c2cccc(F)c2c1=O [Example 2s]
Q = CC[C@H](NC(=O)c1c(O)c(-c2ccccc2)nc2ccccc12)c1ccccc1 [Talnetant, talnetant, reference compound]
input: Of the two listed items, P and Q , which carries the larger fraction unbound at 5 h, 2 µM figure? Your choice should be expressed through its label.
output: P
